pIC50 values by entry
Molecular target: T1, full-length beta-Catenin (Uniprot ID P35222) (Homo sapiens (Human), UniProt P35222 1-781)
T1 construct: also called bCat; B-Catenin
T1 sequence: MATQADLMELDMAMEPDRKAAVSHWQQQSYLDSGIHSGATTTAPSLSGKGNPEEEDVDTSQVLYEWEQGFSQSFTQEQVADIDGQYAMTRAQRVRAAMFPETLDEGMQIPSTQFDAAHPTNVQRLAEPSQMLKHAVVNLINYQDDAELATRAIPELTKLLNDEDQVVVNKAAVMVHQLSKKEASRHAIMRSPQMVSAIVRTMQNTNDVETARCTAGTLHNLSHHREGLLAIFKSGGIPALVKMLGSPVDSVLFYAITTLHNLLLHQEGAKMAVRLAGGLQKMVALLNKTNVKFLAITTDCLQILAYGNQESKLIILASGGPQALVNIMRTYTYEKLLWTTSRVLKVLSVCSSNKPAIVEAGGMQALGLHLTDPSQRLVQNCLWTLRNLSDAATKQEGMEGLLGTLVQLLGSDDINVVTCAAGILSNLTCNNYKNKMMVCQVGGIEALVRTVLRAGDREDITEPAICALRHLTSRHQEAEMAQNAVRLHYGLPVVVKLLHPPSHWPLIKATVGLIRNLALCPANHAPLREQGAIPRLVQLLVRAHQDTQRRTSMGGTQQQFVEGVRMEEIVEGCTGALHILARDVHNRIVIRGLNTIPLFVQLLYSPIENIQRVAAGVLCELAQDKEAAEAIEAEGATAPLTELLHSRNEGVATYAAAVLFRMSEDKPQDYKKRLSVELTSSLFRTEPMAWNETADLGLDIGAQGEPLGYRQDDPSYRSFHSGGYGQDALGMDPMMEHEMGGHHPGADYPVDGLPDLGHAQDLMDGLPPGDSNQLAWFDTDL
Assay: fluorescence polarization competition; peptide titrated against 10 nM full-length beta-catenin + 10 nM 5FAM-TCF4(10-53)
Description: The plate was incubated protected from light for 60 minutes at 20° C. prior to read. Reads were performed on a CLARIOstar plate reader (BMG Labtech) in duplicate, and data were fitted to a 1:1 binding model with hill slope using an in-house script. All provided concentrations are final concentrations.
pIC50: −log10 of the molar value. Starred links: 1 amine or outer side, 2 acyl side, 3 side chain; linkers in the order of their positions; H or OH if unused. Positions of bridges follow the written chain, without caps; N, C: chain ends. Non-standard residues stand in square brackets, D forms with d. Primed or numbered codes have the meaning given here. B5(19) = 2-amino-2-(pent-4-en-1-yl)hept-6-enoic acid (bis(4-pentenyl)glycine), C=CCCCC(CCCC=C)(N[*:1])C(=O)[*:2]; Phe(4-CN) = N#Cc1ccc(C[C@H](N)C(=O)O)cc1; Bta = N[C@@H](Cc1csc2ccccc12)C(=O)O; αAllylPro = C=CC[C@@]1(C(=O)O)CCCN1; S8 = C=CCCCCCC[C@](C)(N)C(=O)O
outcome measure: pIC50

[[record]]
binder = "XDAXDDAAFVXAWQ (not fully specified; N-terminal Ac; PL3 at 1, B5 at 4, S8 at 11 (staples 1-4 and 4-11 by olefin metathesis); C-terminal NH2, Stapled peptide; also called Ac-PL3-Asp-Ala-B5-Asp-Asp-Ala-Ala-Phe-Val-S8-Ala-Trp-Gln-NH2) [I-356]"
outcome_measure = "pIC50"
measured_value = 5.30

[[record]]
binder = "Ac-[αAllylPro]DA[B5(19)]DDAAFV[S8][Phe(4-CN)][Bta]Q-NH2 (staple 1-4, 4-11, Stapled peptide; also called Ac-PL3-Asp-Ala-B5-Asp-Asp-Ala-Ala-Phe-Val-S8-4CNF-BztA-Gln-NH2) [I-359]"
outcome_measure = "pIC50"
measured_value = 5.30

[[record]]
binder = "XDAXDDAAFVXFAQ (not fully specified; N-terminal Ac; PL3 at 1, B5 at 4, S8 at 11 (staples 1-4 and 4-11 by olefin metathesis); C-terminal NH2, Stapled peptide; also called Ac-PL3-Asp-Ala-B5-Asp-Asp-Ala-Ala-Phe-Val-S8-Phe-Ala-Gln-NH2) [I-358]"
outcome_measure = "pIC50"
measured_value = 5.30


Where do these numbers come from? They come from patent US20240116985A1.
